target_or_test_system: PR-B progesterone receptor (Homo sapiens)
experimental_details: Antagonism at the PR-B progesterone receptor (transactivation assay)
experimental_parameters: read-out: Antagonistic Activity IC50
readout: IC50 (nM)

P. Cc1ccc(C#CC(O)(CC(C)(C)c2ccccc2)C(=O)Nc2ccc3c(=O)onc(C)c3c2)cc1 (single isomer, unassigned; (-)) [Example 17b]
Q. C#CC(O)(CC(C)(C)c1ccccc1)C(=O)Nc1ccc2c(=O)onc(C)c2c1 (racemic) [Example 14]
R. Cc1noc(=O)c2ccc(NC(=O)C(O)(C#Cc3ccccc3)CC3(c4ccccc4Cl)CCCC3)cc12 (racemic) [Example 5]
S. Cc1cc(C)c(C#CC(O)(CC(C)(C)c2ccccc2)C(=O)Nc2ccc3c(=O)onc(C)c3c2)cc1C (racemic) [Example 35]
T. Cc1noc(=O)c2ccc(NC(=O)C(O)(C#Cc3ccccc3)CC(C)(C)c3ccccc3)cc12 (racemic) [Example 16]
Input: // ascending sort on recorded IC50 Ranked list of labels, please, in the requested order.
Output: P, R, T, S, Q
(P: 0.03 nM, R: 0.2 nM, T: 0.7 nM, S: 2 nM, Q: 6 nM)

I. COc1ccc(C#CC(O)(CC(C)(C)c2ccccc2)C(=O)Nc2ccc3c(=O)onc(C)c3c2)cc1 (racemic) [Example 18]
II. Cc1noc(=O)c2ccc(NC(=O)C(O)(C#Cc3ccccc3C(F)(F)F)CC(C)(C)c3ccccc3)cc12 (racemic) [Example 24]
Input: Returns: the argument ( I or II ) having the larger IC50. State your choice using its label.
Output: II
(II: 2 nM, I: 0.2 nM)

----------
target_or_test_system: PR-B progesterone receptor (Homo sapiens, UniProt P06401)
Sequence (P06401 1-933): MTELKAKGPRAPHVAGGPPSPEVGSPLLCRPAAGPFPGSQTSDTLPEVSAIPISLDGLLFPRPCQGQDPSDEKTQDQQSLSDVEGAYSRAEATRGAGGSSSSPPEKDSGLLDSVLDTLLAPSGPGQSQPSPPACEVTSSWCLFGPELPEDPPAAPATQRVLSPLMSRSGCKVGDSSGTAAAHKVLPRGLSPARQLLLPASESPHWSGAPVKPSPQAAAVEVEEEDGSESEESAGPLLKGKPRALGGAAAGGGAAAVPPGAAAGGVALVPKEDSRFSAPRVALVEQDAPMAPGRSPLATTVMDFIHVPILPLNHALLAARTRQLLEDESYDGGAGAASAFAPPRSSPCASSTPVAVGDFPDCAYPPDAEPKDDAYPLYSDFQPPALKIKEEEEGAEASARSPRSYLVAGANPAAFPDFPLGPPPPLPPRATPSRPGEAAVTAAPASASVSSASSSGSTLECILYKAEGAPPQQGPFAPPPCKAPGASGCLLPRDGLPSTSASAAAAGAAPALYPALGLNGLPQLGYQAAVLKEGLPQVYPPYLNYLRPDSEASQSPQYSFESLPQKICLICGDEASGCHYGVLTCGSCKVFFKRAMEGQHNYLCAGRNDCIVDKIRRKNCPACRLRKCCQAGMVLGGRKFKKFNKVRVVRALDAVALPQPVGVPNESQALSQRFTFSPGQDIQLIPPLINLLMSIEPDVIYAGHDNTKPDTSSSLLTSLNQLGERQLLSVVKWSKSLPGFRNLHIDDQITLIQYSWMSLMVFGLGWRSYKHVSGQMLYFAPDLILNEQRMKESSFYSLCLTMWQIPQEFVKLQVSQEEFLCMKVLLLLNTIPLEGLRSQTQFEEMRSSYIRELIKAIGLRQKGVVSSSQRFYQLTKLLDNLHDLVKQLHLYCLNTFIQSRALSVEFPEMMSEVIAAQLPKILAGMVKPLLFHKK
experimental_details: Agonism on the PR-B progesterone receptor (transactivation assay)
experimental_parameters: read-out: Agonistic Activity EC50
readout: EC50 (nM)

P. C#CC(O)(CC(C)(C)c1ccccc1)C(=O)Nc1ccc2c(=O)onc(C)c2c1 (racemic)
Q. Cc1noc(=O)c2ccc(NC(=O)C(O)(C#Cc3ccccc3)CC3(c4ccccc4Cl)CCCC3)cc12 (racemic)
R. Cc1noc(=O)c2ccc(NC(=O)C(O)(C#Cc3ccccc3)CC(C)(C)c3ccccc3)cc12 (racemic)
Input: // ascending sort on recorded EC50 Ranked list of labels, please, in the requested order.
Output: Q, R, P
(Q: 0.2 nM, R: 0.5 nM, P: 7 nM)
